The measurements presented in this section are drawn from patent US20160376333A1.

Overview of reported Kd across a group of binders:
Target: T1, human Bcl-w a.a. 1-182 with C-terminal avi-6his tag (human, UniProt Q92843 1-182)
T1 construct: range 1-182; also called BCL2L2
T1 sequence: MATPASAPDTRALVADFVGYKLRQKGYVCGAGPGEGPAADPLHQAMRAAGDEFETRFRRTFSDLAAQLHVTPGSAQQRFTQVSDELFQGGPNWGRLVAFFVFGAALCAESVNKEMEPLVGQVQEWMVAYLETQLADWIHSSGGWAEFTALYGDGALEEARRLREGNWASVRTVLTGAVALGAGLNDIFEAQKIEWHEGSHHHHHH
Test: BLI, biotinylated target on streptavidin sensor, range of analyte concentrations
Measure name: Kd (nM)

>  <Binder>
10-CDP01 (designed binder, also called B-CDP01) ADPKKVLDKAKDQAENRVRELKQELERLYKEARKLDLTQEMRRKLEWRYIAAMLKAIGDILNAIAQAENEADKLKKAGLVNSQQLDELRRRLEELAKEAARKAHDYGREFQLKLEY

>  <Observed>
900

$$$$
>  <Binder>
FINDI (designed binder, also called αBFL1) ADPKKVLDKAKDQAENRVRELKQKLEELYKEARKLDLTQEKRKKLEVATLGAVLAAHGDILNAIMQAKEEADKLKKAGLVNSQQLDELKRRLEELKEEALRKASDYGNEFHLKRRY

>  <Observed>
7400

$$$$
>  <Binder>
10-ECM01 (designed binder) ADPKKILDKAKDQVENRVRELKQELERLYKEARKLDLTQEMRRKLHVRYIAAMLKAIAAILNAIAQAENEADKLKKAGLVNSQQLDELRRRLEELTEEAAQKAHDYGREFQLKLEYG

>  <Observed>
19000

$$$$
>  <Binder>
MINDI (Mcl-1-inhibiting design acting intracellularly) (designed binder, also called M-CDP04; αMCL1) ADPKKVLDKAKDQAENRVRELKQVLEELYKEARKLDLTQEMRKKLIERYAAAIIRAIGDINNAIYQAKQEAEKLKKAGLVNSQQLDELLRRLDELQKEASRKANEYGREFELKLEY

>  <Observed>
200000

$$$$
>  <Binder>
F-CDP01 (designed binder) ADPKKVLDKAKDQAENRVRELKQKLEELYKEARKLDLTQEMRKKLQYAAIGAMLAAIGDILNAIMQAKQEADKLKKAGLVNSQQLDELKRRLEELKEEALRKAHDYGSEFYLKLEY

>  <Observed>
590

$$$$
>  <Binder>
WINDI (designed binder, also called W-ECM01; αBCLW) DPKKVFDELKDRAENNVRRLKQKLEELYKEARKKDLTQEEREKLKTKYKTAMQLAALAAEGDIMNALLKARKLHKNGQVNEQQLEELARRLMELAKEAFQKAKDYANEFKYKLEY

>  <Observed>
1.01

$$$$
>  <Binder>
2-INDI (designed binder, also called αBCL2) ADPKKVLDKAKDEAENRVRELKQRLEELYKEARKLDLTQEMRQELVDKARAASLQANGDIFYAILRALAEAEKLKKAGLVNSQQLDELKRRLEELAEEARRKAEKLRDEFRLKLEY

>  <Observed>
1850

$$$$
